B1: S. cerevisiae Abp1 (full length; SH3 domain 535-592 mutated) / Hua2 (parent)
chain 1: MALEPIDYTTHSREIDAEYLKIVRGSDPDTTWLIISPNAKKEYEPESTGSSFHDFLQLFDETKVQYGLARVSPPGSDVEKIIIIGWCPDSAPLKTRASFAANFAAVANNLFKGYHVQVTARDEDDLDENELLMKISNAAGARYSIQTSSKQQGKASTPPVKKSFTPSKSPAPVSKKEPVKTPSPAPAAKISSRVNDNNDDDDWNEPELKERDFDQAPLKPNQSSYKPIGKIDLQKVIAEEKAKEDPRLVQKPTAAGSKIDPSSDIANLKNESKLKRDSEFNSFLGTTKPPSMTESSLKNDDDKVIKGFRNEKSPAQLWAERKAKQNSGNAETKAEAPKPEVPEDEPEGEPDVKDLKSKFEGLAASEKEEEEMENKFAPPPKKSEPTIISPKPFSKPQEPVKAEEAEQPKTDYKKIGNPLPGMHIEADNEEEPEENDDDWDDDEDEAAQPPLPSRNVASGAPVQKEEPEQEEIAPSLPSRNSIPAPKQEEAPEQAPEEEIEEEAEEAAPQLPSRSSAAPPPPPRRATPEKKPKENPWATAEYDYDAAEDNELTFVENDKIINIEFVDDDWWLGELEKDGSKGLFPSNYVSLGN
chain 2: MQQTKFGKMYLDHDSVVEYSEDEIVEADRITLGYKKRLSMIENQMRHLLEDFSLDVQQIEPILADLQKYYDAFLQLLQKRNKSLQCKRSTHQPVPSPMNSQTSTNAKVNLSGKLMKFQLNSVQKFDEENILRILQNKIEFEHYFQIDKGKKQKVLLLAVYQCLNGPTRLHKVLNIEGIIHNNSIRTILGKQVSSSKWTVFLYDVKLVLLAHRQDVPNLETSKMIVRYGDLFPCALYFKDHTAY

Variants of: B1
test_description: DHFR protein-fragment complementation in yeast (Abp1-DHFR F[1,2] x partner-DHFR F[3]), deep mutational scanning, second methotrexate selection vs reference
settings: with Hua2; S. cerevisiae, DHFR-PCA selection in liquid with methotrexate at 30 C, two 72 h selections (the score uses the second); reference = the pre-selection culture; not an affinity; value at the no-binding floor (a bound); scale: DMS score: mean over two replicates of log2(f_test/f_ref + 0.5)/ln 2, minus the synonymous-codon median
Entries and their screen value
assay_endpoint: screen value

variant_label | recorded_result
chain 1 A537R | -3.04
chain 1 D557L | < -3.06
chain 1 I562A | < -3.06
chain 1 F553Q | < -3.06
chain 1 F583G | < -3.06
chain 1 E563P | -3.04
chain 1 G572H | < -3.06
chain 1 G572Y | < -3.06
chain 1 V588R | < -3.06
chain 1 A537E | -3.04
chain 1 G581N | < -3.06
chain 1 S585F | -2.99
chain 1 G572M | < -3.06
chain 1 I559G | -3.05
chain 1 Y543M | < -3.06
chain 1 A539M | < -3.06
chain 1 E550R | -3
chain 1 D557F | < -3.06
chain 1 V588Q | -3.02
chain 1 D557W | < -3.06
chain 1 Y543R | -3.05
chain 1 D568P | < -3.06
